- system.tested: MAP kinase-activated protein kinase 3 (Homo sapiens); further: in the data inactive means no Kd found up to 30 µM
- Sequence (Q16644 whole entry): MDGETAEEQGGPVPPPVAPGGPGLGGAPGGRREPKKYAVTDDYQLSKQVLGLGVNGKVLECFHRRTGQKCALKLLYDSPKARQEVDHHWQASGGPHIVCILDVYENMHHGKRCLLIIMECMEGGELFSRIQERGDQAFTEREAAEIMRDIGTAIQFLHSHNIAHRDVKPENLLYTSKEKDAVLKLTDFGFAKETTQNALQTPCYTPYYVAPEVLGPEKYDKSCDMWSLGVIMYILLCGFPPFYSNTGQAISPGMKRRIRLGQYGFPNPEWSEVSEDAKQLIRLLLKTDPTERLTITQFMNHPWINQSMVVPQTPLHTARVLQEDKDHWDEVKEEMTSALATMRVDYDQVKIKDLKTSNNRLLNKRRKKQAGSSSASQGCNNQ
Calls of active or inactive are those of the source.
Respond using exactly one of the listed classes: label 1 = active, label 0 = inactive

See these solved cases before continuing.
molecule: Cc1cc2c(F)c(Oc3ncnn4cc(OC[C@@H](C)OC(=O)[C@H](C)N)c(C)c34)ccc2[nH]1 [BRIVANIB ALANINATE]
assigned.class: label 0
--
molecule: Cc1cc(-c2cc(O)ccc2Cl)cc2nnc(Nc3ccc(OCCN4CCCC4)cc3)nc12
assigned.class: label 0
--
molecule: Cc1ccc(NC(=O)c2ccc(CN3CC[C@H](N(C)C)C3)c(C(F)(F)F)c2)cc1Nc1nccc(-c2cncnc2)n1
assigned.class: label 1

Okay, next one:
How did this test come out for Cc1ccc(-n2nc(C(C)(C)C)cc2NC(=O)NCc2cc(F)ccc2Oc2ccc3c(cnn3CCO)c2)cc1 ?
label 0

----------
- system.tested: Mitogen-activated protein kinase kinase kinase 2 (Homo sapiens); further: in the data inactive means no Kd found up to 30 µM
- Sequence (Q9Y2U5 whole entry): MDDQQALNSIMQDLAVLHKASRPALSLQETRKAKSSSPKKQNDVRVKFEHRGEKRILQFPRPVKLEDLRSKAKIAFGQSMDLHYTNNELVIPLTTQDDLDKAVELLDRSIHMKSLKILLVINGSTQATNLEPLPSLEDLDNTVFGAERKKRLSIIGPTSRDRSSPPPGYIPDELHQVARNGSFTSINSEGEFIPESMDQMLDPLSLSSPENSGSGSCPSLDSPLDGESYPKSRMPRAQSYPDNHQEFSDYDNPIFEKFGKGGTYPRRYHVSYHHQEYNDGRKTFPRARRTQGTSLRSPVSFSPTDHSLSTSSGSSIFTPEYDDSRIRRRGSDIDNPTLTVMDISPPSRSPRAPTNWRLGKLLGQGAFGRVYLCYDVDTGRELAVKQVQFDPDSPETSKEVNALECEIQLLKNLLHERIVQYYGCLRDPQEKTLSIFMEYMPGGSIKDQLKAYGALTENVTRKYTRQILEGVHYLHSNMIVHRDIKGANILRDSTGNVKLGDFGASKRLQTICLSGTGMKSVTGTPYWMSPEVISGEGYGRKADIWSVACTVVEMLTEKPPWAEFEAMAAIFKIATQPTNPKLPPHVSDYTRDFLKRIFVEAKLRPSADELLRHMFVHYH
The source made the active and inactive calls.
quantity.name: Kd

Worked examples, 2 molecules total:
given.smiles: CC[C@H](Nc1ncnc2[nH]cnc12)c1nc2cccc(F)c2c(=O)n1-c1ccccc1
Kd: > 30 µM (inactive)

given.smiles: CO[C@H]1C[C@@H]2CC[C@@H](C)[C@@](O)(O2)C(=O)C(=O)N2CCCC[C@H]2C(=O)O[C@H]([C@H](C)C[C@@H]2CC[C@@H](OCCO)[C@H](OC)C2)CC(=O)[C@H](C)/C=C(\C)[C@@H](O)[C@@H](OC)C(=O)[C@H](C)C[C@H](C)/C=C/C=C/C=C/1C
Kd: > 30 µM (inactive)

Name the reported Kd value associated with the molecule CNS(=O)(=O)Nc1nccc(Cc2c(C)c3ccc(Oc4ncccn4)cc3oc2=O)c1F
> 30 µM (inactive)

----------
- system.tested: Putative heat shock protein HSP 90-beta 2 (Homo sapiens); further: in the data inactive means no Kd found up to 30 µM
- Sequence (Q58FF8 whole entry): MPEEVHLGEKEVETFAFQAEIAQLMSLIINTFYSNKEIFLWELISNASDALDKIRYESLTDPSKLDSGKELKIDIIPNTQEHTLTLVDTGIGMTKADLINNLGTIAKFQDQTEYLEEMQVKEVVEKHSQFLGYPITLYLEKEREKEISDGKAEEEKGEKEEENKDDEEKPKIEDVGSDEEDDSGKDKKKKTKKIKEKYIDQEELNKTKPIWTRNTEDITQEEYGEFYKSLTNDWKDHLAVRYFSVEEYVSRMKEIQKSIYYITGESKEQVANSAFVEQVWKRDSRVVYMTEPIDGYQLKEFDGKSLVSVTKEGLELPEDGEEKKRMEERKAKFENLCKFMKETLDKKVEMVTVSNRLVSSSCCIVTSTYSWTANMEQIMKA
Active and inactive are the calls of the source.
quantity.name: Kd

Hello, I would appreciate it if you could give Kd for each entry below.
1. CCn1c(=O)c(-c2cc[nH]n2)cc2c(C)nc(N)nc21
2. COc1ccc(-c2ccc3c(N4CCOC[C@@H]4C)nc(N4CCOC[C@@H]4C)nc3n2)cc1CO
3. COC(=O)N[C@@H](C)CNc1nccc(-c2cn(C(C)C)nc2-c2cc(Cl)cc(NS(C)(=O)=O)c2F)n1
4. Cc1cc(Nc2cc(N3CCN(C)CC3)nc(/C=C/c3ccccc3)n2)n[nH]1
5. CN1CC[C@@H](c2c(O)cc(O)c3c(=O)cc(-c4ccccc4Cl)oc23)[C@@H]1CO
6. Cc1cc2c(F)c(Oc3ncnn4cc(OC[C@@H](C)OC(=O)[C@H](C)N)c(C)c34)ccc2[nH]1 [BRIVANIB ALANINATE]
7. Cc1ccc(-n2nc(C(C)(C)C)cc2NC(=O)NCc2cc(F)ccc2Oc2ccc3c(cnn3CCO)c2)cc1
8. COc1cc2nccc(Oc3ccc(NC(=O)Nc4cc(C)on4)c(Cl)c3)c2cc1OC

1. > 30 µM (inactive)
2. > 30 µM (inactive)
3. > 30 µM (inactive)
4. > 30 µM (inactive)
5. > 30 µM (inactive)
6. > 30 µM (inactive)
7. > 30 µM (inactive)
8. > 30 µM (inactive)

----------
- system.tested: Proto-oncogene tyrosine-protein kinase receptor Ret (Homo sapiens); further: in the data inactive means no Kd found up to 30 µM
- Sequence (P07949 whole entry): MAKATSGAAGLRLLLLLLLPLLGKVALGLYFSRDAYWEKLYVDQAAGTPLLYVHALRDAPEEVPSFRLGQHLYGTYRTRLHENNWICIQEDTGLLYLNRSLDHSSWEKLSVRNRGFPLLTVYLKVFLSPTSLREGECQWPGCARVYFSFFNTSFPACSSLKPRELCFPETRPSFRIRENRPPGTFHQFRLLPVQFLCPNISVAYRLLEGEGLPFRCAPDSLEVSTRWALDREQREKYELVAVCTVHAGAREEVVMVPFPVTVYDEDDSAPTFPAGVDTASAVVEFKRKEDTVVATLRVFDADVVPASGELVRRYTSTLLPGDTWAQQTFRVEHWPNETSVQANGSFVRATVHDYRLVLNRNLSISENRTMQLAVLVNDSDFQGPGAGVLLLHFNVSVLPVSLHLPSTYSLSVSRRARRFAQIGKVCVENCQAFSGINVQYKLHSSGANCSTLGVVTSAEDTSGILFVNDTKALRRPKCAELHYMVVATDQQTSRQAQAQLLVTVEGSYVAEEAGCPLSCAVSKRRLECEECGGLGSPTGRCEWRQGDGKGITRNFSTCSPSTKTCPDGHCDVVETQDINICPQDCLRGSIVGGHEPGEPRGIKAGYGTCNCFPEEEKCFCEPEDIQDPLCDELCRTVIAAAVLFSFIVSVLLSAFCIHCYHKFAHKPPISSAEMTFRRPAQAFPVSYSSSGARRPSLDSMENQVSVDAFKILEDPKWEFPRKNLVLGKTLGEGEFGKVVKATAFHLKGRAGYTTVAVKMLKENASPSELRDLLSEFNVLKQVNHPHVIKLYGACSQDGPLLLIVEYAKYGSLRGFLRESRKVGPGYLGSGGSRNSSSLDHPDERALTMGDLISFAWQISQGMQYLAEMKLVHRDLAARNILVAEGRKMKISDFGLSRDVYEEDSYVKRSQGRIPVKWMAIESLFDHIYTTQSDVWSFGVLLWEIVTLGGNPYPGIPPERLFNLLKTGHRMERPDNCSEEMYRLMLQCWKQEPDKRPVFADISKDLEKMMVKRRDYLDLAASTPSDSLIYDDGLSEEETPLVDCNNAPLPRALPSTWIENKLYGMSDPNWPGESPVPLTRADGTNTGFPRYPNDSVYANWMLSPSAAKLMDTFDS
Activity calls are given as the source filed them.
Respond using exactly one of the listed classes: yes (1) for active, no (0) for inactive

See these solved cases before continuing.
compound: CNC(=O)c1ccc(-c2cnc3ncc(Cc4ccc5ncccc5c4)n3n2)cc1F [CAPMATINIB]
assigned.class: no (0)
//
compound: O=c1sn(-c2cccc3ccccc23)c(=O)n1Cc1ccccc1 [TIDEGLUSIB]
assigned.class: no (0)

How did this test come out for CNC(=O)c1ccc(C)c(-n2c(C)cc(OCc3ccc(F)cc3F)c(Br)c2=O)c1 [PH-797804] ?
no (0)

How did this test come out for Cn1cc(-c2ccc3nnc(C(F)(F)c4ccc5ncccc5c4)n3n2)cn1 [JNJ-38877605] ?
no (0)

How did this test come out for Cc1cc([C@@H](C)Nc2ccccc2C(=O)O)c2nc(N3CCOCC3)cc(=O)n2c1 [AZD-6482] ?
no (0)

How did this test come out for COC(=O)N[C@@H](C)CNc1nccc(-c2cn(C(C)C)nc2-c2cc(Cl)cc(NS(C)(=O)=O)c2F)n1 [ENCORAFENIB] ?
no (0)

How did this test come out for CCCS(=O)(=O)Nc1ccc(F)c(C(=O)c2c[nH]c3ncc(-c4ccc(Cl)cc4)cc23)c1F [VEMURAFENIB] ?
no (0)

How did this test come out for O=C(c1ccc(F)c(F)c1Nc1ccc(I)cc1F)N1CC(O)([C@@H]2CCCCN2)C1 [COBIMETINIB] ?
no (0)

How did this test come out for Cn1ncc(Cl)c1-c1cc(C(=O)N[C@H](CN)Cc2cccc(F)c2)sc1Cl [AFURESERTIB] ?
no (0)

How did this test come out for O=C(O)[C@]1(Cc2cccc(Nc3nccs3)n2)CC[C@@H](Oc2cccc(Cl)c2F)CC1 [MK-5108] ?
yes (1)

How did this test come out for Cc1ccc(-n2nc(C(C)(C)C)cc2NC(=O)NCc2cc(F)ccc2Oc2ccc3c(cnn3CCO)c2)cc1 [PEXMETINIB] ?
yes (1)

How did this test come out for C=CC(=O)N1CCC(Oc2cc3c(Nc4ccc(Cl)c(Cl)c4F)ncnc3cc2OC)CC1 [POZIOTINIB] ?
yes (1)

How did this test come out for CNC(=O)CN1CCC(Oc2cc3c(Nc4cccc(Cl)c4F)ncnc3cc2OC)CC1 [SAPITINIB] ?
yes (1)

----------
Epidermal growth factor receptor (Homo sapiens, UniProt P00533) measurements of Kd, listed per entry. Further: in the data inactive means no Kd found up to 30 µM.
Sequence (P00533 whole entry): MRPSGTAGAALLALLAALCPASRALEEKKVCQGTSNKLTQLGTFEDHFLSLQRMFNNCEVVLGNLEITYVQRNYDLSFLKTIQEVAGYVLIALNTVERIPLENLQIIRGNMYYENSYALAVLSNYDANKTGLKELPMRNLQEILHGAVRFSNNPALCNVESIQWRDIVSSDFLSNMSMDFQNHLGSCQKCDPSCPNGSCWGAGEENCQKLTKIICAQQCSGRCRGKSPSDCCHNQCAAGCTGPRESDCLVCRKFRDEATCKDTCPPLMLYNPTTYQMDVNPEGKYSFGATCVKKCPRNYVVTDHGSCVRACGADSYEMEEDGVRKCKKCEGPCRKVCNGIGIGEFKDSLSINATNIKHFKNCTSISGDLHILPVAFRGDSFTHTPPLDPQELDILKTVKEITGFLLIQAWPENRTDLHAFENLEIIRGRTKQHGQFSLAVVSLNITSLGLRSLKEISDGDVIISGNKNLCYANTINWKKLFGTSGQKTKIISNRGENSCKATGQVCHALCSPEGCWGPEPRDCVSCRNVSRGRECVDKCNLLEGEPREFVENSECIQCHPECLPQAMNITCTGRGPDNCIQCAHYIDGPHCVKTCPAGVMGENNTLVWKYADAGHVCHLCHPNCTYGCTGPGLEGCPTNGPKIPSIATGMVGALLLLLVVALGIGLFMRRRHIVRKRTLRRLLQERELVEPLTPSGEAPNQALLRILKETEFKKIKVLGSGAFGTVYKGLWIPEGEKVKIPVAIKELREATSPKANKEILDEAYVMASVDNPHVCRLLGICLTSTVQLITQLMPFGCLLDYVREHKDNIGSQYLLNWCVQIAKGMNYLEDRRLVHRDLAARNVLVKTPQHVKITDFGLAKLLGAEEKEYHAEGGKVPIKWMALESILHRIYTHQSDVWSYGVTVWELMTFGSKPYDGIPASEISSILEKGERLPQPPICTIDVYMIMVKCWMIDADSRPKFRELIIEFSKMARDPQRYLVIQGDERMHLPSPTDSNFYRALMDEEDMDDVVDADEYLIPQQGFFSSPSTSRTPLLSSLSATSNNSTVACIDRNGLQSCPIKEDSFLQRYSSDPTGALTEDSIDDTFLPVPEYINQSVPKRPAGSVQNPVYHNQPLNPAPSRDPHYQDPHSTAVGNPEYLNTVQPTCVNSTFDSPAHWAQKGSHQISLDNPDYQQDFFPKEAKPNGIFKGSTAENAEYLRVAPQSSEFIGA
Active and inactive are the calls of the source.

molecule: Cc1cc(-c2cc(O)ccc2Cl)cc2nnc(Nc3ccc(OCCN4CCCC4)cc3)nc12
measured.result: > 30 µM (inactive)

Hello, I would appreciate it if you could give Kd for each entry below.
1. O=C(c1ccc(F)c(F)c1Nc1ccc(I)cc1F)N1CC(O)([C@@H]2CCCCN2)C1 [COBIMETINIB]
2. CO[C@H]1C[C@@H]2CC[C@@H](C)[C@@](O)(O2)C(=O)C(=O)N2CCCC[C@H]2C(=O)O[C@H]([C@H](C)C[C@@H]2CC[C@@H](OCCO)[C@H](OC)C2)CC(=O)[C@H](C)/C=C(\C)[C@@H](O)[C@@H](OC)C(=O)[C@H](C)C[C@H](C)/C=C/C=C/C=C/1C [EVEROLIMUS]

> 30 µM (inactive)
> 30 µM (inactive)

Hello, I would appreciate it if you could give Kd for each entry below.
1. CNC(=O)c1ccc(C)c(-n2c(C)cc(OCc3ccc(F)cc3F)c(Br)c2=O)c1 [PH-797804]
2. CNC(=O)c1ccc(-c2cnc3ncc(Cc4ccc5ncccc5c4)n3n2)cc1F [CAPMATINIB]
3. Cn1cc(-c2ccc3nnc(C(F)(F)c4ccc5ncccc5c4)n3n2)cn1 [JNJ-38877605]

1. > 30 µM (inactive)
2. > 30 µM (inactive)
3. > 30 µM (inactive)

Name the reported Kd value associated with the molecule CC[C@@H]1C(=O)N(C)c2cnc(Nc3ccc(C(=O)N[C@H]4CC[C@H](N5CCN(CC6CC6)CC5)CC4)cc3OC)nc2N1C(C)C [VOLASERTIB]
> 30 µM (inactive)

----------
Active and inactive are the calls of the source.
Non-receptor tyrosine-protein kinase TYK2 (Homo sapiens) measurements of Kd, listed per entry. Further: in the data inactive means no Kd found up to 30 µM.
Sequence (P29597 whole entry): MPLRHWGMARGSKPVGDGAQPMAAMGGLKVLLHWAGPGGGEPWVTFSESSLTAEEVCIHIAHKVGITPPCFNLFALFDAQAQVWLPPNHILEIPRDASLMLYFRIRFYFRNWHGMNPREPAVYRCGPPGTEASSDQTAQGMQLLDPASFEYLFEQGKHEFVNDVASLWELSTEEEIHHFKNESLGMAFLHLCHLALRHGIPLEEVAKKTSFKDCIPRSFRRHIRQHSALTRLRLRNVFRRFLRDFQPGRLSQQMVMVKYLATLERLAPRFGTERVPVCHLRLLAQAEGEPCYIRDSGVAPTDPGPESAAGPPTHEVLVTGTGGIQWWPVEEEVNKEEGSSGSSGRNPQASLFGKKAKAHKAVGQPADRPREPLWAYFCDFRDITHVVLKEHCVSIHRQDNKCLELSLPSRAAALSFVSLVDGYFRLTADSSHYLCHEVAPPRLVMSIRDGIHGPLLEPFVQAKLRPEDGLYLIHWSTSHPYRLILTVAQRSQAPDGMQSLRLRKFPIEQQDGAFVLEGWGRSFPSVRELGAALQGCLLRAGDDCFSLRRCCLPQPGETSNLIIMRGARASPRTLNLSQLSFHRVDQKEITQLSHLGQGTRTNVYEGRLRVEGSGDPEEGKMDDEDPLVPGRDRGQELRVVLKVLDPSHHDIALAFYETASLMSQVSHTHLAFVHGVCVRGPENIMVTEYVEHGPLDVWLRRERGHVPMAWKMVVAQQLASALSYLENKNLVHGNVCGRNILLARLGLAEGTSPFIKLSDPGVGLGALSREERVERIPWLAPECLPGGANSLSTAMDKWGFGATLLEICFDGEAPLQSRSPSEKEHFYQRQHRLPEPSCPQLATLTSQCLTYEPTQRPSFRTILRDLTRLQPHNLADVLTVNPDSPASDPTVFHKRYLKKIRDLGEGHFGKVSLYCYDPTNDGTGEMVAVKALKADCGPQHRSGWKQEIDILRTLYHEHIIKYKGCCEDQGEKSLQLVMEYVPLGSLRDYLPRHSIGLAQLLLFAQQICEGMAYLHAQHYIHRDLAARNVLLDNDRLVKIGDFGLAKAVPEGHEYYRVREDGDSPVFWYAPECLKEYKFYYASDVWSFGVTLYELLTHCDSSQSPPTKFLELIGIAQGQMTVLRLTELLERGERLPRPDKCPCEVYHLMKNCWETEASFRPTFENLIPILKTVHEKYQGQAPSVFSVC

Worked examples, 2 compounds total:
given.smiles: CO[C@H]1C[C@@H]2CC[C@@H](C)[C@@](O)(O2)C(=O)C(=O)N2CCCC[C@H]2C(=O)O[C@H]([C@H](C)C[C@@H]2CC[C@@H](OCCO)[C@H](OC)C2)CC(=O)[C@H](C)/C=C(\C)[C@@H](O)[C@@H](OC)C(=O)[C@H](C)C[C@H](C)/C=C/C=C/C=C/1C
measured.result: > 30 µM (inactive)

given.smiles: O=C1NC(=O)/C(=C/c2ccc3nccc(-c4ccncc4)c3c2)S1
measured.result: > 30 µM (inactive)

Kd of COCCNCc1ccc(-c2cc3nccc(Oc4ccc(NC(=S)NC(=O)Cc5ccc(F)cc5)cc4F)c3s2)nc1 on Non-receptor tyrosine-protein kinase TYK2 (Homo sapiens)?
> 30 µM (inactive)
